{"smiles_text": "Cc1nc2ccc(F)cn2c1-c1cncc(Nc2ccc(C(F)(F)F)c(F)c2)n1", "melting point": "216 to 218 °C"}
{"smiles_text": "Cc1nc2ccc(F)cn2c1-c1cncc(Nc2ccc(OC(F)F)cc2)n1", "melting point": "171 to 173 °C"}
{"smiles_text": "CCc1nn2ccc(F)cc2c1-c1cncc(Nc2ccc(C(F)(F)F)cc2)n1", "melting point": "129 to 131 °C"}
{"smiles_text": "FC(F)(F)Oc1ccc(Nc2cncc(-c3c(C4CC4)nc4ccc(C(F)(F)F)cn34)n2)cc1", "melting point": "213 to 215 °C"}
{"smiles_text": "Cc1noc(C)c1-c1cncc(Nc2ccc3c(c2)OCO3)n1", "melting point": "185 to 186 °C"}
{"smiles_text": "Cc1nc2ccc(F)cn2c1-c1cncc(Nc2ccc(Cl)cc2)n1", "melting point": "215 to 218 °C"}
{"smiles_text": "Fc1ccn2nc(C3CC3)c(-c3cncc(Nc4ccc(C(F)(F)F)cc4)n3)c2c1", "melting point": "122 to 125 °C"}
{"smiles_text": "FC(F)(F)c1ccc(Nc2cncc(-c3cccc4nc(C5CCC5)cn34)n2)cc1", "melting point": "288 to 290 °C"}

# credit: patent US10584115B2
